molecular target: human AspH (His6-AspH315–758) (Homo sapiens, UniProt Q12797); construct: N-Terminally His6-tagged human AspH315–758 (His6-AspH315–758) was produced in Escherichia coli BL21 (DE3) cells; made in house; host or cells: Escherichia coli BL21 (DE3), pET-28a(+) vector; assay: SPE-MS AspH inhibition assay (hFX-CP101-119 substrate hydroxylation); type: biochemical; conditions: AspH-inhibitor screening, Plate 1-duplicate
Sequence (Q12797 315-758): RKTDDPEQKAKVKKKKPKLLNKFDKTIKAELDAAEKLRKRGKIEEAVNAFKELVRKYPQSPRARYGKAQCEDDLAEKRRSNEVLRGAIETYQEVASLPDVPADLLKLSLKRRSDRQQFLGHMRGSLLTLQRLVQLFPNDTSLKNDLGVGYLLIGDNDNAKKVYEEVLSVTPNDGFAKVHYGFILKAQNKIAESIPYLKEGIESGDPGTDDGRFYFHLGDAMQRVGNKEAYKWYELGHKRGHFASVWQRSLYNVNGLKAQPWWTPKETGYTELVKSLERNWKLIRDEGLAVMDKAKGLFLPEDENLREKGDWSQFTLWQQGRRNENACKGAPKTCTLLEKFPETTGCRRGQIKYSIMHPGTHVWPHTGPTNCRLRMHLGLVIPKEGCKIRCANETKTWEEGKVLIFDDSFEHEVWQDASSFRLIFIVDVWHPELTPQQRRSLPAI
measurement.label: Plate 1-duplicate (% inhibition) (%)

Here are 4 compounds together with their reported answers.
CC(C)(C)c1cc(NC(=O)Nc2ccc(-c3cn4c(n3)sc3cc(OCCN5CCOCC5)ccc34)cc2)no1 [AC220_Quizartinib]; -18.68
C=CC(=O)Nc1cc2c(Nc3ccc(F)c(Cl)c3)ncnc2cc1OCCCN1CCOCC1 [Canertinib]; -55.96
CC(=O)Nc1cccc(-n2c(=O)n(C3CC3)c(=O)c3c(Nc4ccc(I)cc4F)n(C)c(=O)c(C)c32)c1 [GSK1120212_Trametinib]; -2.41
COc1cc([C@@H]2c3cc4c(cc3[C@@H](O[C@@H]3O[C@@H]5CO[C@@H](C)O[C@H]5[C@H](O)[C@H]3O)[C@H]3COC(=O)[C@H]23)OCO4)cc(OC)c1O [Etoposide]; -2.73

(a) Nc1nc2[nH]cc(CCc3ccc(C(=O)N[C@@H](CCC(=O)[O-])C(=O)[O-])cc3)c2c(=O)[nH]1.O.O.O.O.O.O.O.[Na+].[Na+] [Pemetrexed, Disodium salt, Heptahydrate]
(b) CC(C)n1cnc2c(NCCc3ccc(O)cc3)nc(-c3csc4ccccc34)nc21.Cl [SR1 HCl]
Problem: # min-compare on Plate 1-duplicate (% inhibition) between a and b Pick one; state its label.
Solution: a
(a: 6.63%, b: 43.66%)

###

molecular target: human AspH (His6-AspH315–758) (Homo sapiens, UniProt Q12797); construct: N-Terminally His6-tagged human AspH315–758 (His6-AspH315–758) was produced in Escherichia coli BL21 (DE3) cells; made in house; host or cells: Escherichia coli BL21 (DE3), pET-28a(+) vector; test: SPE-MS AspH inhibition assay (hFX-CP101-119 substrate hydroxylation); format: biochemical; details: AspH-inhibitor screening, Plate 1-duplicate
Structures can show the parent of a compound that is named as a salt.
measurement.label: Plate 1-duplicate (% inhibition) (%)

Here are 3 molecules together with their reported answers.
Nc1nc(OCc2cc(Br)cs2)c2[nH]cnc2n1; 8.11
CN(C)CCOc1ccc(/C(=C(/CCCl)c2ccccc2)c2ccccc2)cc1 [Toremifene citrate]; 75.95
Cc1cnc(NC(=O)Nc2cc(Br)c(C)cc2OC[C@@H]2CNCCO2)cn1; -47.27

(1) CN[C@@H](C)C(=O)N[C@H]1CN(C(=O)CC(C)C)CC[C@H]2CC[C@@H](C(=O)NC(c3ccccc3)c3ccccc3)N2C1=O
(2) Cc1ccc(NC(=O)c2ccc(CN3CCN(C)CC3)cc2)cc1Nc1nc(-c2cccnc2)cs1
Problem: # min-compare on Plate 1-duplicate (% inhibition) between 1 and 2 Pick one; state its label.
Solution: 2
(2: -11.47%, 1: -2.44%)

###

biological target: human AspH (His6-AspH315–758) (Homo sapiens, UniProt Q12797); construct: N-Terminally His6-tagged human AspH315–758 (His6-AspH315–758) was produced in Escherichia coli BL21 (DE3) cells; made in house; host or cells: Escherichia coli BL21 (DE3), pET-28a(+) vector; assay: SPE-MS AspH inhibition assay (hFX-CP101-119 substrate hydroxylation); type: biochemical; settings: AspH-inhibitor screening, Plate 1-duplicate, substrate conversion
Where a name gives a salt, the structure may show the parent alone.
measurement.label: Plate 1-duplicate (% conversion) (%)

CC(C)C[C@H](NC(=O)[C@H](Cc1ccccc1)NC(=O)c1cnccn1)B(O)O; 48.13
O=C(CCCCCCC(=O)Nc1ccccc1)NO; 48.24
NCC(=O)CCC(=O)O [Aminolevulinic acid hydrochloride]; 39.20
O=[N+]([O-])c1ccc2c(c1)S(=O)(=O)C=C2; 47.29

(A) C/C(=C\c1csc(C)n1)[C@@H]1C[C@@H]2O[C@]2(C)CCC[C@H](C)[C@H](O)[C@@H](C)C(=O)C(C)(C)[C@@H](O)CC(=O)N1 [Ixabepilone]
(B) Cc1cc(Nc2cc(CN3CCOCC3)c3nc(C)c(Cc4ccc(Cl)cc4F)n3n2)n[nH]1
Problem: # min-compare on Plate 1-duplicate (% conversion) between A and B Pick one; state its label.
Solution: A
